These measurements were taken from the supplement of paper PMC7411054.

system: WPMY1-ACTB-RAB5A; assay: phenotypically active (imaging signature differs from DMSO and reproducible) at any of 0.3-9 uM (binary (1 = active, 0 = inactive)); higher = active; details: treatment time: 24 h
Reported values of phenotypically active for individual entries
Just the number, please, no unit after it.

Recorded results for 2 molecules are shown here.
molecule	readout-type	value-reported
CCOC(=O)C1=C[C@]2(CC)CCCN3CCc4c(n1c1ccccc41)[C@@H]32 [Vinpocetine]	phenotypically active	0
O=C(CCCN1CCC(O)(c2ccc(Cl)cc2)CC1)c1ccc(F)cc1 [haloperidol]	phenotypically active	0

Turning now to a further record.
// phenotypically active lookup, molecule = CC(=O)N[C@@H](CC(=O)O)C(=O)N[C@@H](CCC(=O)O)C(=O)O [Spaglumic acid] , result: 0
